# assay.overview: basal RPMI8226 mitochondrial membrane potential changes, profiling panel, cell-based, JC-1 fluorescence, 24 h, 100 nL compound (AID 1169); note: test concentration not given here
# condition.details: RPMI8226 myeloma, JC-1 mitochondrial potential fluorescence, higher = more signal
z-score values, listed per item
Reply: number alone, nothing else.

Examples with their reported z-score follow.
COC(=O)[C@@]1(Cc2ccc(OC)cc2)[C@H]2c3cc(C(=O)N(C)C)n(Cc4c(OC)[nH]cc(C)c4=O)c3C[C@H]2CN1C(=O)c1ccccc1; -0.213
COc1ccc(C(=O)Nc2cccc(CN3C(=O)[C@]4(O[C@H](CC(=O)N5CCC[C@H]5CO)[C@@H]([Si](C)(C)c5ccc(OC)cc5)[C@@H]4C)c4ccccc43)c2)cc1; -1.1

Lab note: next molecule to report on.
Which z-score is reported for this molecule? C=CCNC(=O)[C@@H]1[C@H]2C(=O)O[C@H](c3ccccc3)[C@H](c3ccccc3)N2[C@H](c2ccc(O)cc2)[C@@]12C(=O)N(C(=O)OCCOC)c1ccccc12 0.104
